Target: Thromboxane A2 receptor (Rattus norvegicus, UniProt P34978)
Sequence (P34978 whole entry): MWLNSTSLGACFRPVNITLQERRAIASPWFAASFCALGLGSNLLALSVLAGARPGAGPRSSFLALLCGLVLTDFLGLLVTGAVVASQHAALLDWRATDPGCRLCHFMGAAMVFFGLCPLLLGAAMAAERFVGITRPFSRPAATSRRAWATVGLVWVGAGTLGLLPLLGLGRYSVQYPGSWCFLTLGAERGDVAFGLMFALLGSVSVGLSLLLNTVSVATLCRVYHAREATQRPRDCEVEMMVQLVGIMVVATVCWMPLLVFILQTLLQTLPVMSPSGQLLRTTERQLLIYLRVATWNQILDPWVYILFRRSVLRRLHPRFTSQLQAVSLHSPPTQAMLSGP
Assay: Compound was tested for TXA2 receptor antagonism by measuring its ability to inhibit contraction of rat aorta induced by the stable TXA2 agonist U-46,619 at 1 umol
Format: functional, tissue-based
Conditions: read-out: pA2 (converted)
READOUT KIND: Kb (nM)

Worked examples follow.
COc1ccc(S(=O)(=O)Nc2ccc3c(c2)c(Cc2ccc(F)cc2)cn3CCC(=O)O)cc1: 0.174
O=C(O)CCn1cc(Cc2ccc(F)cc2)c2cc(NS(=O)(=O)c3ccc(Cl)cc3)ccc21: 0.234
Cc1c(Cn2ccnc2)c2cc(NS(=O)(=O)c3ccc(F)cc3)ccc2n1CCC(=O)O: 3800
O=C(O)CCn1cc(Cc2ccc(F)cc2)c2cc(NS(=O)(=O)c3ccccc3)ccc21: 0.676
O=C(O)CCn1ccc2cc(NS(=O)(=O)c3ccc(F)cc3)ccc21: 3.72
O=C(O)CCn1cc(Cc2cccnc2)c2cc(NS(=O)(=O)c3ccc(F)cc3)ccc21: 1.41
O=C(O)CCn1ccc2cc(NS(=O)(=O)c3ccc(Cl)cc3)ccc21: 2.75

(A) O=C(O)CCCc1ccc(NS(=O)(=O)c2ccc(Cl)cc2)cc1
(B) O=C(O)CCn1cc(Cc2ccc(F)cc2)c2cc(NS(=O)(=O)c3ccc(F)cc3)ccc21
(C) Cc1ccc(S(=O)(=O)Nc2ccc3c(c2)c(Cc2ccc(F)cc2)cn3CCC(=O)O)cc1
(D) O=C(O)CCn1cc(Cn2ccnc2)c2cc(NS(=O)(=O)c3ccc(F)cc3)ccc21
q: Please list the entries, largest Kb first. When ranking, write the labels in the order the request describes.
a: A, D, B, C
(A: 100 nM, D: 6.31 nM, B: 0.479 nM, C: 0.269 nM)
